reported.metric: melting point

// below: answered molecules
{"columns": ["molecule", "reported.metric", "result"],
 "data": [
  ["Cc1cccc(-c2nc3cccnn3c2-c2ccnc(NC3CCCc4ccccc43)c2)c1 (stereo not drawn)", "melting point", "195 to 196 °C"],
  ["Cc1cccc(-c2nc3cccnn3c2-c2ccnc(NCCO)c2)c1", "melting point", "176 to 177 °C"],
  ["Cc1cc(-c2nc3cccnn3c2-c2ccnc(NC(=O)NC3CCC(O)CC3)c2)ccc1F (stereo not drawn)", "melting point", "218 to 220 °C"]
]}

Okay, next one:
// lookup melting point for COc1ccc(C(=O)Nc2cc(-c3c(-c4cccc(C)c4)nc4ccc(Cl)nn34)ccn2)cc1 204 to 205 °C

* * *

reported.metric: melting point

{"columns": ["compound", "result"],
 "data": [
  ["Cc1cc(-c2nc3cccnn3c2-c2ccnc(NC(=O)c3ccc(Cl)cc3)c2)ccc1F [Example Compound 21-17]", "207 to 209 °C"],
  ["Cc1cc(-c2nc3cccnn3c2-c2ccnc(NC(=O)c3ccnc(Cl)c3)c2)ccc1F", "224 to 225 °C"],
  ["Cc1cc(-c2nc3cccnn3c2-c2ccnc(NC(=O)c3ccc(Cl)nc3)c2)ccc1F.Cl", "250 to 251 °C"],
  ["Cc1cc(-c2nc3cccnn3c2-c2ccnc(NC(=O)c3cnccn3)c2)ccc1F", "229 to 230 °C"],
  ["CSc1ccc2nc(-c3cccc(C)c3)c(-c3ccnc(NC4CCCCC4)c3)n2n1", "150 to 151 °C"]
]}

Okay, next one:
// lookup melting point for Cc1cc(-c2nc3cccnn3c2-c2ccnc(NC(=O)c3ccc(N(C)C)cc3)c2)ccc1F 245 to 246 °C

* * *

As shown below, each of these compounds has a reported melting point value.

// below: answered compounds
{"columns": ["compound", "result"],
 "data": [
  ["Cc1cc(-c2nc3cccnn3c2-c2ccnc(NC(=O)NCC(F)(F)F)c2)ccc1F", "229 to 230 °C"],
  ["COc1ccc2nc(-c3cccc(C)c3)c(-c3ccnc(NC4CCCCC4)c3)n2n1", "188 to 189 °C"],
  ["CCN(CC)CCNc1cc(-c2c(-c3cccc(C)c3)nc3cccnn23)ccn1", "97 to 98 °C"],
  ["Cc1cc(-c2nc3cccnn3c2-c2ccnc(NC(=O)NCCCCl)c2)ccc1F", "170 to 171 °C"],
  ["Cc1cc(-c2nc3cc(C(C)(C)C)c(Cl)nn3c2-c2ccnc(N)c2)ccc1F", "232 to 233 °C"],
  ["Cc1cc(-c2nc3cccnn3c2-c2ccnc(NC(=O)NC3CCCCC3)c2)ccc1F", "229 to 230 °C"],
  ["Cc1cccc(-c2nc3cccnn3c2-c2ccnc(N)c2)c1", "188 to 189 °C"]
]}

// lookup melting point for CCNC(=O)Nc1cc(-c2c(-c3ccc(F)c(C)c3)nc3c(C)cc(Cl)nn23)ccn1 229 to 230 °C
